target: C3AR1 (Homo sapiens, UniProt Q16581); construct: purchased Promega (in-house HiBiT-GPCR construct library, NanoBRET); assay: NanoBRET screen HiBiT-C3AR1 in HEK293; type: binding; settings: C3AR1; tracer 0.1μM
Sequence (Q16581 whole entry): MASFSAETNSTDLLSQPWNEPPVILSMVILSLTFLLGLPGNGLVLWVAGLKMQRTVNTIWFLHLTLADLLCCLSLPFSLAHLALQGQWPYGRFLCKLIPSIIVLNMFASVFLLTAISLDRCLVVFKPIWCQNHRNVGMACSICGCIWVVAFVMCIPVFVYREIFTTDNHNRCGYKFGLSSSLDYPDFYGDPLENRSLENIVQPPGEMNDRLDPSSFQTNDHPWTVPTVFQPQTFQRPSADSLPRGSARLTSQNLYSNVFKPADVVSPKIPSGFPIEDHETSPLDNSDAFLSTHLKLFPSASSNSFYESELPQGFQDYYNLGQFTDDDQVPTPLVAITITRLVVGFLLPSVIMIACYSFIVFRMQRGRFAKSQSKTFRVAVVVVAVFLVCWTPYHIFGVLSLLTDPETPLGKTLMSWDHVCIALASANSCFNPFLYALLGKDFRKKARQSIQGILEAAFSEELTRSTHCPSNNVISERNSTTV
Listing: NanoBRET Fold Response of selected compounds
API note: the answer field is a bare number with no unit suffix.

compound	NanoBRET Fold Response
CC(C)N(CC[C@H](c1ccccc1)c1cc(CCNC(=O)c2ccc(CNC(=O)CCc3ccc4n3[B-](F)(F)[N+]3=C(c5ccc[nH]5)C=CC3=C4)cc2)ccc1O)C(C)C	1.00
Cc1cc2c(s1)Nc1ccccc1N=C2N1CCN(CCCNC(=O)CCOCCOCCOCCOCCNC(=O)CCc2ccc3n2[B-](F)(F)[N+]2=C(c4ccc[nH]4)C=CC2=C3)CC1	1.01
N#CN=C(NCCCOc1cccc(CN2CCCCC2)c1)NCCNC(=O)CCOCCOCCOCCOCCNC(=O)CCc1ccc2n1[B-](F)(F)[N+]1=C(c3ccc[nH]3)C=CC1=C2	0.99

Proceeding to the next compound to report its NanoBRET Fold Response.
The reported NanoBRET Fold Response of the compound O=C(CCc1ccc2n1[B-](F)(F)[N+]1=C(c3ccc[nH]3)C=CC1=C2)NCc1ccc(C(=O)NCCOCCC(=O)N[C@@H]2CC[C@@]3(O)[C@H]4Cc5ccc(O)c6c5[C@@]3(CCN4CC3CC3)[C@H]2O6)cc1 [Naltrexone-3-NB590] was 0.99
